- Test system: M14
- method-notes: Growth inhibition of human M14 cells at 10 uM after 48 hrs by sulforhodamine B assay
- Format: functional
- experimental-conditions: M14, 48 h, read-out: GI
Consider the following compounds; for each one, report its inhibition of growth at 10 µM.

Below: 5 compounds and their reported inhibition of growth at 10 µM.
>>> experimental_result("COc1ccc(Cc2nnc(Nc3ccc(C#N)cc3)c3ccccc23)cc1")
"< 30%"
>>> experimental_result("COc1ccc(Cc2nnc(Nc3cccc(OC)c3)c3ccccc23)cc1")
"< 30%"
>>> experimental_result("COc1ccc(Cc2nnc(Nc3ccc(Cl)c(C(F)(F)F)c3)c3ccccc23)cc1")
"48%"
>>> experimental_result("COc1ccc(Cc2nnc(Nc3ccccc3)c3ccccc23)cc1")
"< 30%"
>>> experimental_result("COc1ccc(Cc2nnc(Nc3ccc(OC)cc3)c3ccccc23)cc1")
"< 30%"

Could I get inhibition of growth at 10 µM for every one of these entries?
1. COc1ccc(Cc2nnc(Nc3ccc(NC(=O)Nc4ccccc4)cc3)c3ccccc23)cc1
2. COc1ccc(Cc2nnc(Nc3ccc(NC(=O)Nc4cccc(Cl)c4)cc3)c3ccccc23)cc1

Result:
< 30%
< 30%

Problem: Notebook: pull reported inhibition of growth at 10 µM for M14, entry COc1ccc(Cc2nnc(Nc3ccc(NC(=O)Nc4ccc(C#N)cc4)cc3)c3ccccc23)cc1
Result: 35%

----------
- Test system: MCF7
- method-notes: Growth inhibition of human MCF7 cells at 10 uM after 48 hrs by sulforhodamine B assay
- Format: functional
- experimental-conditions: MCF7, 48 h, read-out: GI
Consider the following molecules; for each one, report its inhibition of growth at 10 µM.
Give bare numbers, in %.

Below: 5 molecules and their reported inhibition of growth at 10 µM.
>>> experimental_result("COc1ccc(Cc2nnc(Nc3ccc(NC(=O)Nc4ccc(Cl)cc4)cc3)c3ccccc23)cc1")
33
>>> experimental_result("COc1ccc(Cc2nnc(Nc3ccc(OC)cc3)c3ccccc23)cc1")
38
>>> experimental_result("COc1ccc(Cc2nnc(Nc3ccc(Cl)cc3)c3ccccc23)cc1")
36
>>> experimental_result("COc1ccc(Cc2nnc(Nc3ccc(Cl)c(C(F)(F)F)c3)c3ccccc23)cc1")
48
>>> experimental_result("COc1ccc(Cc2nnc(Nc3ccc(NC(=O)Nc4ccccc4Cl)cc3)c3ccccc23)cc1")
32

Could I get inhibition of growth at 10 µM for every one of these entries?
1. COc1ccc(Cc2nnc(Nc3ccc(NC(=O)Nc4ccc(C#N)cc4)cc3)c3ccccc23)cc1
2. COc1ccc(Cc2nnc(Nc3ccc(NC(=O)Nc4ccc(OC)cc4)cc3)c3ccccc23)cc1

Result:
[45, 30]

----------
Consider the following compounds; for each one, report its inhibition of growth at 10 µM.
- System: Malme-3M
- method-notes: Growth inhibition of human MALME-3M cells at 10 uM after 48 hrs by sulforhodamine B assay
- Type: functional
- experimental-conditions: read-out: GI

>>> experimental_result("COc1ccc(Cc2nnc(Nc3ccc(NC(=O)Nc4ccc(Cl)cc4)cc3)c3ccccc23)cc1")
"< 30%"
>>> experimental_result("COc1ccc(Cc2nnc(Nc3ccc(NC(=O)Nc4ccc(Cl)c(C(F)(F)F)c4)cc3)c3ccccc23)cc1")
"< 30%"
>>> experimental_result("COc1ccc(Cc2nnc(Nc3ccc(NC(=O)Nc4ccccc4)cc3)c3ccccc23)cc1")
"< 30%"

Could I get inhibition of growth at 10 µM for every one of these entries?
1. COc1ccc(Cc2nnc(Nc3ccc(NC(=O)Nc4ccccc4Cl)cc3)c3ccccc23)cc1
2. COc1ccc(Cc2nnc(Nc3ccc(NC(=O)Nc4ccc(OC)cc4)cc3)c3ccccc23)cc1
3. COc1ccc(Cc2nnc(Nc3ccc(NC(=O)Nc4cccc(OC)c4)cc3)c3ccccc23)cc1
4. COc1ccc(Cc2nnc(Nc3ccc(NC(=O)Nc4ccc(C#N)cc4)cc3)c3ccccc23)cc1
5. COc1ccc(Cc2nnc(Nc3ccc(NC(=O)Nc4cccc(Cl)c4)cc3)c3ccccc23)cc1
6. COc1ccc(Cc2nnc(Nc3cccc(OC)c3)c3ccccc23)cc1

Result:
["< 30%", "31%", "< 30%", "42%", "< 30%", "< 30%"]

Could I get inhibition of growth at 10 µM for every one of these entries?
1. COc1ccc(Cc2nnc(Nc3ccc(Cl)c(C(F)(F)F)c3)c3ccccc23)cc1
2. COc1ccc(Cc2nnc(Nc3ccc(NC(=O)Nc4cccc(C(F)(F)F)c4)cc3)c3ccccc23)cc1

Result:
1: < 30%; 2: < 30%
